- System: HSD1 enzyme that is expressed in rabbit placenta tissue
- assay_summary: Inhibition of E1 to E2 conversion in rabbit placenta tissue homogenate
- Assay type: biochemical
- condition_description: compound 100 nM, 30 nM estrone, 1 mM β-NADPH, 30 min
Everything with Rabbit placenta inhibition % @100 nM lower than 60% is -1; everything else, including exactly 60%, is 1.

[[record]]
molecule = "Cc1nnc(NC(=O)CC[C@@H]2c3c[nH]nc3[C@@]3(C)CCC4c5cccc(F)c5CCC4C23)o1 (stereo partly drawn)"
discrete_label = -1

[[record]]
molecule = "Cn1ccc(NC(=O)CC[C@@H]2c3c[nH]nc3[C@@]3(C)CCC4c5ccccc5CCC4C23)n1 (stereo partly drawn)"
discrete_label = -1

[[record]]
molecule = "C[C@]12CCC3c4cccc(F)c4CCC3C1[C@H](CCC(=O)Nc1cccc(F)n1)c1c[nH]nc12 (stereo partly drawn)"
discrete_label = 1

[[record]]
molecule = "Cn1cc(NC(=O)CC[C@@H]2c3c[nH]nc3[C@@]3(C)CCC4c5cccc(F)c5CCC4C23)cn1 (stereo partly drawn)"
discrete_label = 1

[[record]]
molecule = "CC(C)c1ccc(NC(=O)CC[C@@H]2c3c[nH]nc3[C@@]3(C)CCC4c5cccc(F)c5CCC4C23)nc1 (stereo partly drawn)"
discrete_label = -1


Hello, I need to know if Cc1ccc(NC(=O)CC[C@@H]2c3c[nH]nc3[C@@]3(C)CCC4c5cccc(F)c5CCC4C23)nn1 (stereo partly drawn) has measured Rabbit placenta inhibition % @100 nM not below 60%. Thanks!
1

Reported Rabbit placenta inhibition % @100 nM reaches at least 60% for C[C@]12CCC3c4ccccc4CCC3C1[C@H](CCC(=O)Nc1cccnn1)c1c[nH]nc12 (stereo partly drawn) ?
-1

Threshold query (Rabbit placenta inhibition % @100 nM >= 60%) on CN(C)C(=O)CC[C@@H]1c2c[nH]nc2[C@@]2(C)CCC3c4cccc(F)c4CCC3C12 (stereo partly drawn)
-1

# bool: Rabbit placenta inhibition % @100 nM of COc1ccc(NC(=O)CC[C@@H]2c3c[nH]nc3[C@@]3(C)CCC4c5ccccc5CCC4C23)nn1 (stereo partly drawn) >= 60%
-1
